# target_of_assay: PDHK1 (Homo sapiens (Human))
# Sequence (Q15118 29-436): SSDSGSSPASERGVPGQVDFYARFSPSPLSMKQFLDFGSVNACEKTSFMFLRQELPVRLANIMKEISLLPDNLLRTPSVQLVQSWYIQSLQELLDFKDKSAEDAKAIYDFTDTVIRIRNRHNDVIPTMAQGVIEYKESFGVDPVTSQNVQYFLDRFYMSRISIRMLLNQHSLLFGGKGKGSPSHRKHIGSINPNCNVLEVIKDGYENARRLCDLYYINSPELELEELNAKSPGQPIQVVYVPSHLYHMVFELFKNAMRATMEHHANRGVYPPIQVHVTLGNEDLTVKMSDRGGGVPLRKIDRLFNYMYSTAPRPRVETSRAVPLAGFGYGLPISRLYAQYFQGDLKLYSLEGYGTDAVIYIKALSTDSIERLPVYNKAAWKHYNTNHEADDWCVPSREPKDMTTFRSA
# assay_notes: PDHK1 enzymatic assay (AlphaScreen, phosphorylation of PDHE1 S293)
# Type: biochemical
# experimental_parameters: 1 nM PDHK1, 25 nM PDHE1, 20 μM ATP, 30° C. for 45 minutes; read-out: Enzymatic IC50 against PDHK1 (converted)
readout_label: IC50 (µM)
Give bare numbers, in µM.

Here are 3 compounds together with their reported answers.
>>> df
                                   compound               target_of_assay  readout_label     val
0  CCNc1cc(F)cc2c1NC(=O)[C@@]2(C)N1CCC[C@@H](Oc2ccc(S(=O)(=O)F)c(OC)c2)C1  PDHK1 (Homo sapiens (Human))           IC50   0.109
1  CCNc1cc(F)cc2c1NC(=O)C2(C)N1CCC[C@@H](Cc2ccc(C#N)cc2)C1 (stereo partly shown)  PDHK1 (Homo sapiens (Human))           IC50   0.379
2  CCNc1cc(F)cc2c1NC(=O)[C@@]2(C)N1CC[C@@H](c2ccccc2)[C@@H](C(=O)NCc2ccccc2)C1 [Example 62B]  PDHK1 (Homo sapiens (Human))           IC50  0.0759

Hey, can you go through the list below and give me IC50 for every item?
1. CCNc1cc(F)cc2c1NC(=O)[C@@]2(C)N1CC[C@@H](c2ccccc2)[C@@H](C(=O)Nc2ccccc2)C1 [Example 61B]
2. CCNc1cc(F)cc2c1NC(=O)[C@@]2(C)N1CC[C@@H](c2ccccc2)[C@@H](C(=O)NC)C1 [Example 60B]

1: 0.0473; 2: 0.0212

Hey, can you go through the list below and give me IC50 for every item?
1. CCNc1cc(F)cc2c1NC(=O)[C@@]2(C)N1CCC[C@@H](Oc2ccc(C(=O)O)c(Cl)c2)C1
2. CCNc1cc(F)cc2c1NC(=O)[C@@]2(C)N1CC[C@@H](c2ccccc2)[C@@H](C(N)=O)C1 [Example 59B]

0.0152
0.0171

----------
# target_of_assay: PDHK1 (Homo sapiens (Human))
# assay_notes: PDHK1 enzymatic assay (AlphaScreen, phosphorylation of PDHE1 S293)
# Assay type: biochemical
# experimental_parameters: 1 nM PDHK1, 25 nM PDHE1, 20 μM ATP, 30° C. for 45 minutes
readout_label: Enzymatic IC50 against PDHK1
State the value, then name its unit.

                                   compound          val
0  CCNc1cc(F)cc2c1NC(=O)C2(C)N1CC[C@H](c2ccccc2Oc2ccc(C(N)=O)cc2)[C@@H](NC(C)=O)C1 (stereo partly drawn) [Example 57]  0.019 µg/mL
1  CCNc1cc(F)cc2c1NC(=O)C2(C)N1CCC[C@@H](NC(=O)c2cc(F)c(O)c(F)c2)C1 (stereo partly drawn) [Example 35]  0.030 µg/mL
2  CCNc1cc(F)cc2c1NC(=O)C2(C)N1CCC[C@@H](Nc2ccc(O)nc2)C1 (stereo partly drawn) [Example 21]  0.037 µg/mL
3  CCNc1cc(F)cc2c1NC(=O)C2(C)N1CCC[C@@H](Nc2ccc(C(=O)O)nc2)C1 (stereo partly drawn) [Example 11]  0.020 µg/mL

Hey, can you go through the list below and give me Enzymatic IC50 against PDHK1 for every item?
1. CCNc1cc(F)cc2c1NC(=O)C2(C)N1CCC[C@@H](Nc2ccc(S(C)(=O)=O)nc2)C1 (stereo partly drawn) [Example 20]
2. CCNc1cc(F)cc2c1NC(=O)[C@]2(C)N1CC[C@H](c2ccccc2)[C@H](C(N)=O)C1 [Example 63A]
3. CCNc1cc(F)cc2c1NC(=O)C2(C)N1CCC[C@@H](Nc2ccc(CO)nc2)C1 (stereo partly drawn) [Example 18]
4. CCNc1cc(F)cc2c1NC(=O)C2(C)N1CC[C@H](c2ccccc2Oc2ccc(C(=O)O)cc2)[C@@H](NC(C)=O)C1 (stereo partly drawn) [Example 56]

1: 0.038 µg/mL; 2: 0.009 µg/mL; 3: 0.059 µg/mL; 4: 0.005 µg/mL

Hey, can you go through the list below and give me Enzymatic IC50 against PDHK1 for every item?
1. CCNc1cc(F)cc2c1NC(=O)C2(CC)N1CCC[C@@H](N(C(N)=O)c2ccc(C#N)nc2)C1 (stereo partly drawn) [Example 26]
2. C=CC(=O)N1CC2(CC(C(=O)N[C@@H]3CCCN(C4(C)C(=O)Nc5c(NCC)cc(F)cc54)C3)C2)C1 (stereo partly drawn) [Example 41]
3. CCNc1cc(F)cc2c1NC(=O)C2(C)N1CCC[C@@H](Oc2ccc(O)c(C=O)c2)C1 (stereo partly drawn) [Example 2]
4. CCNc1cc(F)cc2c1NC(=O)C2(C)N1CCC[C@@H](NC(=O)C2CCS(=O)(=O)CC2)C1 (stereo partly drawn) [Example 36]
5. C=CS(=O)(=O)c1ccc(N[C@@H]2CCCN(C3(C)C(=O)Nc4c(NCC)cc(F)cc43)C2)cc1 (stereo partly drawn) [Example 34]

["0.067 µg/mL", "0.032 µg/mL", "0.015 µg/mL", "0.047 µg/mL", "0.032 µg/mL"]

Hey, can you go through the list below and give me Enzymatic IC50 against PDHK1 for every item?
1. CCNc1cc(F)cc2c1NC(=O)C2(C)N1CC[C@H](c2ccccc2)[C@@H](NC(C)=O)C1 (stereo partly drawn) [Example 52]
2. CCNc1cc(F)cc2c1NC(=O)C2(C)N1CCC[C@@H](Nc2ccc(S(=O)(=O)F)c(OC)c2)C1 (stereo partly drawn) [Example 28]

0.020 µg/mL
0.032 µg/mL
